src = the nanobody polyreactivity screen of Harvey et al. (2022)

# Assay Explanation: yeast display, Sf9 membrane polyspecificity reagent, FACS + sequencing; frameworks hold sequencing errors
Property Measured: polyreactivity (PSR sort gate)

For orientation, consider the following solved cases.
Biosequence	Property Measured	Measured
QVQLVESGGRLVQAGGRLRLSCAASGRTFPIYVMGWYRQAQGKERELVATIDSDGTTNYADSVKGRFTISRDNAKNTVSLQMNSLKPEDTAVYYCAADSGWWEYCEDYWGQGTQVTVSS	polyreactivity (PSR sort gate)	low polyreactivity
QVQLVESGGGLVQAGGSLRLSCAASGSIFLTNVMGWYRQAPGKERELVAAISSGGNTYYADSVKGRFTISRDNAKNTVYLQMNSLKPEDTAVYYCAVRYRYDYWGQGTQVTVSS	polyreactivity (PSR sort gate)	high polyreactivity
QVQLVESGAGLVQAGGSRRLSCAASGSIFGVNAMGGYRQAPGKERELVASITGGDSTNYADSVKGRFTISRDNAKNTVYLQMNSLKPEDTAFYYCAKDHYYRYEEGDYWGQGTQVTVSS	polyreactivity (PSR sort gate)	low polyreactivity
QVQLVESGGGLVQAGGSLRLSCAASGITSRPYVMGGYRQAPGKERELVAAISLTGGRTYYADSVKGRFTISRDNAKNTVYLQMNSLKPEDTAVYYCAAKYSNGSGFDYWGQGTQVTVSS	polyreactivity (PSR sort gate)	high polyreactivity

Query: polyreactivity (PSR sort gate); subject: QVHLVESGGGLVQAGGSLRLSCAASGRILGYYAMVWYRQAPGKERELVAAISRGGRTNYADSVKGRFTISRDNAKNTVYLQMNSLKPEDTAVYYCAKDVAGLFHVGALYYYWGQGTQVTVSS
low polyreactivity
